Molecular target: mouse FP receptor (Mus musculus)
Sequence (P43117 whole entry): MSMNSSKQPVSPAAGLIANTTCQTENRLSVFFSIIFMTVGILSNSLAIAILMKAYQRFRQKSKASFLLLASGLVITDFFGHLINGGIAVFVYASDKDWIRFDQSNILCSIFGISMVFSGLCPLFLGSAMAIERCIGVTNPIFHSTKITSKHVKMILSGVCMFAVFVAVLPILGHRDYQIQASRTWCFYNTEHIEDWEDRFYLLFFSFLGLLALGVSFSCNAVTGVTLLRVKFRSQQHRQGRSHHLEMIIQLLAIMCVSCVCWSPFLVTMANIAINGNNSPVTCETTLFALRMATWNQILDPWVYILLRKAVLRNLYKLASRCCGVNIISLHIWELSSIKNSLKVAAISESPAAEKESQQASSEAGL
Test: Measurement of FP agonist activity (intracellular calcium concentration) in FP-CHO cells
Conditions: read-out: Agonist activity on various prostanoid receptors: EC50 value, FP
pEC50: −log10 of the molar value.
property label: pEC50

1 = CCCCC[C@H](O)/C=C/[C@@H]1[C@H]2CC[C@H](CCCC(=O)O)S[C@H]2C[C@H]1O [Comparative Compound B, reference compound]
2 = O=C(O)CCC[C@H]1CC[C@@H]2[C@@H](/C=C/[C@@H](O)COc3ccccc3)[C@H](O)C[C@@H]2S1
Which entry shows the lesser value of pEC50 here, 1 or 2 ? Refer to your chosen item by its label in the answer.
1
